system: SK-MEL-5 melanoma; experiment: NCI tumour cell line growth inhibition, 48 h
Each entry below carries its reported TGI.
Kindly answer with a numeric value in µM, unit omitted.

1. O=C(c1ccccc1)N1CCN(C(=S)N(C(=O)c2ccccc2)c2ccccc2)C1=S	26.5

Reported TGI ( COc1cc(C#Cc2ccc(=O)oc2C#Cc2ccccc2)cc(OC)c1OC ) = 4.77

###

system: SN12C renal; assay: NCI tumour cell line growth inhibition, 48 h; in the data active = GI50 below about 0.43 µM; inactive = the rest
In this exercise, the only acceptable responses are 1 for active, -1 for inactive

Would you please look over these solved cases?
1. CCOC(=O)c1sc(-c2ccc(OS(=O)(=O)c3ccc(Br)s3)c(C=O)c2)nc1C	-1
2. Cn1cc(C2=C(c3cn(CCCCN)c4ccccc34)C(=O)NC2=O)c2ccccc21	-1
3. O=C1c2ccccc2-c2c1c1c(=O)[nH]c3ccccc3c1n2Cc1ccccc1	-1
4. CC[N+](CC)=c1sc2c(s1)C(c1ccc(Cl)cc1)Oc1ccc(Cl)cc1-2 (stereo unspecified)	-1

Ask: Which outcome did this test record for the compound COc1ccc(S(=O)(=O)N2CC(C)(C)CN(S(=O)(=O)c3ccc(OC)cc3)C2C(=O)NO)cc1 ?
Reply: -1

Ask: Which outcome did this test record for the compound CCCNNC(=O)/C=C/c1ccc(CNCCc2c(C)[nH]c3ccccc23)cc1 ?
Reply: 1

Ask: Which outcome did this test record for the compound COC(=O)CCc1c[nH]c2ccc(N(CCCl)CCCl)cc12 ?
Reply: -1

Ask: Which outcome did this test record for the compound CC(C)(C)C(=O)c1c(C(F)(F)F)n([O-])c2ccccc2[n+]1=O ?
Reply: -1

Ask: Which outcome did this test record for the compound COc1ccc(-c2cn[nH]c2-c2cc(OC)c3c(c2)OCO3)cc1 ?
Reply: -1

Ask: Which outcome did this test record for the compound COc1ccc(C(=O)/C=C/c2ccc(C)cc2)cc1OC ?
Reply: -1

Ask: Which outcome did this test record for the compound CCOC(=O)N1CCN(c2nc(Nc3cc(C)[nH]n3)c3ccccc3n2)CC1 ?
Reply: -1

###

system: LOX IMVI melanoma; assay: NCI tumour cell line growth inhibition, 48 h
Each entry below carries its reported TGI.
Kindly answer with a numeric value in µM, unit omitted.

1. COC(=O)[C@]1(c2cc3ccccc3n2S(=O)(=O)c2ccccc2)CC2CN(C(C)=O)C1CC2=O (some centres undefined)	3.8
2. CC(C)=CCc1c(OC(=O)c2c(C)cc(O)cc2O)cc(CO)c(CO)c1O	40.9
3. O=c1[nH]c(=O)n(C2OC(COP(=O)(O)OP(=O)(O)OC3OC(CO)C(O)C(O)C3O)C(O)C2O)cc1F (centres undefined)	4.13
4. Cc1nc(SCC(=O)Nc2nc(-c3ccc(Cl)cc3)cs2)n(Nc2ccccc2)c1C	3.72
5. Clc1nc(Cl)c2ncn(Cc3cccc(Cn4cnc5c(Cl)nc(Cl)nc54)c3)c2n1	5.57

Reported TGI ( COc1cc2c(c(OC)c1OC)-c1ccc(SC)c(=O)cc1[C@@H](NCc1ccc(C#N)cc1)CC2 ) = 55.1

###

system: RXF 393 renal; assay: NCI tumour cell line growth inhibition, 48 h
measured-property: TGI

Please review the entries below; each comes with its answer.
1) COc1ccc(S(=O)(=O)N2CC(C)(C)CN(S(=O)(=O)c3ccc(OC)cc3)C2C(=O)NO)cc1	> 20 µM
2) COc1cc(-c2cc3ncccc3c3nc(N)c4cccnc4c23)cc(OC)c1OC	6.48 µM
3) COc1cc(NC(N)=NCCC(C)(C)Oc2ccc(C(F)(F)F)cc2)ncc1C#N	3.11 µM

Reported TGI ( Cc1[nH]c2c(c1C)S(=O)(=O)c1cc3ccccc3nc1N2 ) = 66.8 µM

Reported TGI ( CN(C)CCNC(=O)c1cccc2c(NCCN(C)C)c3ccccc3nc12 ) = 14.2 µM

Reported TGI ( CC(C)CCC(=O)c1ccoc1 ) = > 100 µM
